These measurements were taken from patent US20230159502A1.

Entries and their pEC50 values follow.
Biological target: NL20 human bronchial epithelial cells expressing human Z-AAT (Homo sapiens, UniProt P01009, E366K)
Construct: doxycycline added with compounds)
Test: AAT Function Assay (MSD Assay NL20-SI Cell Line)
Settings: read-out: NL20 Functional EC50
pEC50: −log10 of the molar value.

[
  {
    "COMPOUND": "COc1cc(-n2c(C34CCC(OC)(CC3)C4)c(-c3ccc(C(=O)O)c(O)c3)c3c(O)cccc32)ccc1F [Compound 512]",
    "pEC50": "5.70 to 6.30"
  },
  {
    "COMPOUND": "COc1c(C(=O)O)ccc(-c2c(C(C)(C)CC#N)n(-c3ccc(F)c(C)c3)c3cc(F)cc(O)c23)c1F [Compound 507]",
    "pEC50": "> 6.30"
  },
  {
    "COMPOUND": "COc1cc(-n2c3cc(F)cc(O)c3c(-c3ccc(C(=O)O)c(OC)c3)c2[C@]2(C)C[C@@H](O)C2)ccc1F (single isomer, unassigned) [Compound 521]",
    "pEC50": "< 5.70"
  },
  {
    "COMPOUND": "Cc1cc(-n2c(C(C)(C)CC#N)c(-c3ccc(C(=O)O)cc3)c3c(O)c(N)ccc32)ccc1F [Compound 375]",
    "pEC50": "< 5.70"
  },
  {
    "COMPOUND": "CNC(=O)OCC(C)(C)c1c(-c2ccc(C(=O)O)cc2)c2c(O)c(F)ccc2n1-c1ccc(F)c(C)c1 [Compound 345]",
    "pEC50": "> 6.30"
  },
  {
    "COMPOUND": "CC(C)(CO)c1c(-c2ccc(C(=O)O)cc2)c2c(O)cc(F)cc2n1-c1ccc(F)c(F)c1 [Compound 288]",
    "pEC50": "5.70 to 6.30"
  }
]

# evaluate next
What pEC50 value was documented for this compound, COCC(C)(C)c1c(-c2ccc(C(=O)O)cc2)c2c(O)c(F)ccc2n1Cc1ccccc1F [Compound 419] ?
< 5.70

---

Target: NL20 human bronchial epithelial cells expressing human Z-AAT (Homo sapiens, UniProt P01009, E366K)
Construct: doxycycline added with compounds)
Assay: AAT Function Assay (MSD Assay NL20-SI Cell Line)
Conditions: read-out: NL20 Functional EC50
MEASURE: EC50

Past entries and their recorded results:
[
  {
    "SMILES_NOTATION": "O=C(O)[C@H]1C[C@@H](c2c(C3CCOCC3)n(-c3ccc(F)cc3)c3ccc(F)cc32)C1",
    "EC50": "> 2000 nM"
  },
  {
    "SMILES_NOTATION": "COc1cc(-n2c(-c3ccc(C(=O)O)c(OC)c3)c(C3(CC#N)CCC3)c3c(O)cc(F)cc32)ccc1F",
    "EC50": "> 2000 nM"
  },
  {
    "SMILES_NOTATION": "COCC(COC)c1c(-c2ccc(C(=O)O)cc2)c2c(O)cccc2n1-c1ccc(F)c(F)c1",
    "EC50": "500 to 2000 nM"
  },
  {
    "SMILES_NOTATION": "COc1ncc(-c2c(C3CCOCC3)n(-c3ccc(F)cc3)c3cccc(O)c23)cn1",
    "EC50": "500 to 2000 nM"
  },
  {
    "SMILES_NOTATION": "Cc1cc(-n2c(C3CCOCC3)c(-c3cc(F)c(C(=O)O)cc3F)c3c(O)cc(F)cc32)ccc1F",
    "EC50": "< 500 nM"
  },
  {
    "SMILES_NOTATION": "Cc1cc(-n2c(C(C)(C)CC#N)c(-c3ccc(C(=O)O)c(N)c3)c3c(O)c(F)ccc32)ccc1F",
    "EC50": "< 500 nM"
  }
]

What EC50 value was documented for this compound, Cc1cc(-n2c(C(C)(C)CC#N)c(-c3ccc(C(=O)O)s3)c3c(O)c(F)ccc32)ccc1F ?
< 500 nM

---

Biological target: NL20 human bronchial epithelial cells expressing human Z-AAT (Homo sapiens, UniProt P01009, E366K)
Construct: doxycycline added with compounds)
Test: AAT Function Assay (MSD Assay NL20-SI Cell Line)
Conditions: read-out: NL20 Functional EC50
Entries and their EC50 values follow.

Past entries and their recorded results:
[
  {
    "COMPOUND": "COCC1(c2c(-c3ccc(C(=O)O)cc3)c3c(O)cc(F)cc3n2-c2ccc(F)c(C)c2)CCCC1 [Compound 331]",
    "ASSAY_VALUE": "< 0.5 µM"
  },
  {
    "COMPOUND": "Cc1cc(-n2c(C3(CC#N)CCC3)c(-c3ccc(C(=O)O)cc3)c3c(O)cc(F)cc32)ccc1F [Compound 327]",
    "ASSAY_VALUE": "< 0.5 µM"
  },
  {
    "COMPOUND": "N#Cc1cc(C(=O)O)ccc1-c1c(C2CCOCC2)n(-c2ccc(F)cc2)c2cccc(O)c12 [Compound 62]",
    "ASSAY_VALUE": "> 2 µM"
  }
]

What EC50 value was documented for this compound, CCS(=O)(=O)N1CCC(c2c(-c3ccc(C(=O)O)cc3)c3c(O)cccc3n2-c2ccc(F)cc2)C1 (stereo not drawn) [Compound 206] ?
> 2 µM

What EC50 value was documented for this compound, COCC(C)(C)c1c(-c2ccc(C(=O)O)cc2)c2c(O)cc(F)cc2n1-c1cccc(OC)c1F [Compound 466] ?
0.5 to 2 µM

---

Target: purified Z-AAT protein (Homo sapiens, UniProt P01009, E366K)
Construct: Purified Z-AAT protein from human plasma
Sequence (P01009 25-418 E366K): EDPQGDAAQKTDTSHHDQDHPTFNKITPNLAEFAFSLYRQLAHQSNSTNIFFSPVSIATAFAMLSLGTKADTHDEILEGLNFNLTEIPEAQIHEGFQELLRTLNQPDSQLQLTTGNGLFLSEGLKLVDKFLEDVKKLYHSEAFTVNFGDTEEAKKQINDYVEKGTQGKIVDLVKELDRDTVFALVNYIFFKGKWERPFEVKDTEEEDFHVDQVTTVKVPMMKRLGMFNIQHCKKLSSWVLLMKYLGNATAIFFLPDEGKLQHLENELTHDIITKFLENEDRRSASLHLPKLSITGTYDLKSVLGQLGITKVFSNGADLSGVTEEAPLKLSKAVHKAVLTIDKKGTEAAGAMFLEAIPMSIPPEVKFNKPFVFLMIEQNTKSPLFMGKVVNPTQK
Assay: Biochemical Assay (Z-AAT Elastase Activity Assay)
Conditions: purified Z-AAT pre-incubated with compound 1 hour, then hNE; N.D. = activity not detected up to 30 μM
MEASURE: IC50

Past entries and their recorded results:
[
  {
    "COMPOUND": "Cc1cc(-n2c(C(C)C)c(S(=O)(=O)CC(C)C(=O)O)c3cc(F)ccc32)ccc1F (stereo not drawn)",
    "IC50": "> 30 µM"
  },
  {
    "COMPOUND": "CC(C)c1c(-c2ccc(C(=O)O)cc2)c2c(O)cnc(Cl)c2n1-c1ccc(F)cc1",
    "IC50": "2 to 5 µM"
  },
  {
    "COMPOUND": "CN(C)C(=O)OCC(C)(C)c1c(-c2ccc(C(=O)O)cc2)c2c(O)cccc2n1-c1ccc(F)cc1",
    "IC50": "> 5 µM"
  },
  {
    "COMPOUND": "Cc1cc(-n2c(C3CCOCC3)c(-c3cccc(C(=O)O)c3)c3cc(F)ccc32)ccc1F",
    "IC50": "> 30 µM"
  },
  {
    "COMPOUND": "Cc1cc(-n2c(C(C)(C)CC#N)c(-c3ccc(C(=O)O)s3)c3c(O)c(F)ccc32)ccc1F",
    "IC50": "< 2 µM"
  },
  {
    "COMPOUND": "Cc1cc(-n2c(C3CCOCC3)c(C3CC4(CC(C(=O)O)C4)C3)c3c(O)cccc32)ccc1F (single isomer, unassigned) [Compound 37]",
    "IC50": "> 5 µM"
  },
  {
    "COMPOUND": "CC(C)(COC(F)F)c1c(-c2ccc(C(=O)O)cc2)c2c(O)cccc2n1-c1ccc(F)cc1",
    "IC50": "2 to 5 µM"
  },
  {
    "COMPOUND": "CC(O)C(C)(C)c1c(-c2ccc(C(=O)O)cc2)c2c(O)cc(F)cc2n1-c1ccc(F)c(F)c1 (stereo not drawn)",
    "IC50": "< 2 µM"
  },
  {
    "COMPOUND": "Cc1cc(-n2c(C(C)(C)COc3ncccn3)c(-c3ccc(C(=O)O)cc3)c3c(O)cccc32)ccc1F",
    "IC50": "> 5 µM"
  },
  {
    "COMPOUND": "CC(C)(CC#N)c1c(-c2ccc(C(=O)O)cc2)c2c(O)c(F)ccc2n1-c1ccc(F)cc1",
    "IC50": "< 2 µM"
  }
]

# evaluate next
API: value(readout=IC50, system=purified Z-AAT protein (Homo sapiens, UniProt P01009, E366K)) for record CCC1(c2c(-c3ccc(C(=O)O)cc3)c3c(O)cc(F)cc3n2-c2ccc(F)c(Cl)c2)COC1
< 2 µM

---

Entries and their pEC50 values follow.
Biological target: NL20 human bronchial epithelial cells expressing human Z-AAT (Homo sapiens, UniProt P01009, E366K)
Construct: doxycycline added with compounds)
Assay: AAT Function Assay (MSD Assay NL20-SI Cell Line)
Conditions: read-out: NL20 Functional EC50
pEC50: −log10 of the molar value.

Past entries and their recorded results:
[
  {
    "COMPOUND": "CS(=O)(=O)c1ccc(-c2c(C3CCOCC3)n(-c3ccc(F)c(F)c3)c3cc(F)cc(O)c23)cc1 [Compound 245]",
    "pEC50": "> 6.30"
  },
  {
    "COMPOUND": "COc1cc(-n2c(C(C)(C)CC#N)c(-c3ccc(C(=O)O)cc3F)c3c(O)cc(F)cc32)ccc1F [Compound 481]",
    "pEC50": "> 6.30"
  },
  {
    "COMPOUND": "COc1cc(-n2c(C(C)C3COC3)c(-c3ccc(C(=O)O)c(OC)c3)c3c(O)cc(F)cc32)ccc1F (centres unmarked) [Compound 530]",
    "pEC50": "< 5.70"
  },
  {
    "COMPOUND": "COCC1(c2c(-c3ccc(C(=O)O)cc3)c3c(O)cc(F)cc3n2-c2ccc(F)c(Cl)c2)COC1 [Compound 303]",
    "pEC50": "5.70 to 6.30"
  }
]

# evaluate next
What pEC50 value was documented for this compound, COC(=O)N1CC(C)(c2c(-c3ccc(C(=O)O)cc3)c3c(O)cccc3n2-c2ccc(F)cc2)C1 [Compound 176] ?
5.70 to 6.30
